// data source = patent US20090124587A1

Assay: Food effect PK study, two single oral 1000 mg doses of abiraterone acetate, fed (high fat) vs fasted
Format: in vivo, human
Conditions: human, plasma, oral, 1000 mg, Patient 15; Fed; sample time 8.067 hr
Observation type: concentration at 8.067 hr (nM)
Numeric only. Scale: nM

(Q) // returns reported concentration at 8.067 hr for input C[C@]12CC[C@H](O)CC1=CC[C@@H]1[C@@H]2CC[C@]2(C)C(c3cccnc3)=CC[C@@H]12 [Abiraterone]
(A) 512

----------
Experiment: Food effect PK study, two single oral 1000 mg doses of abiraterone acetate, fed (high fat) vs fasted
Format: in vivo, human
Conditions: human, plasma, oral, 1000 mg, Patient 14; Fed; sample time 2.033 hr
Observation type: concentration at 2.033 hr
Dear colleague, please send the value followed by its unit.

(Q) // returns reported concentration at 2.033 hr for input C[C@]12CC[C@H](O)CC1=CC[C@@H]1[C@@H]2CC[C@]2(C)C(c3cccnc3)=CC[C@@H]12 [Abiraterone]
(A) 1770 nM

----------
Assay: Food effect PK study, two single oral 1000 mg doses of abiraterone acetate, fed (high fat) vs fasted
Assay type: in vivo, human
Settings: human, plasma, oral, 1000 mg, Patient 14; Fasted
Observation type: Cmax
Dear colleague, please send the value followed by its unit.

(Q) // returns reported Cmax for input C[C@]12CC[C@H](O)CC1=CC[C@@H]1[C@@H]2CC[C@]2(C)C(c3cccnc3)=CC[C@@H]12
(A) 205 nM

----------
Experiment: Food effect PK study, two single oral 1000 mg doses of abiraterone acetate, fed (high fat) vs fasted
Assay type: in vivo, human
Conditions: human, plasma, oral, 1000 mg, Patient 19; Fed; sample time 0.967 hr
Observation type: concentration at 0.967 hr (nM)
Numeric only. Scale: nM

(Q) // returns reported concentration at 0.967 hr for input C[C@]12CC[C@H](O)CC1=CC[C@@H]1[C@@H]2CC[C@]2(C)C(c3cccnc3)=CC[C@@H]12
(A) 0

----------
Assay: Food effect PK study, two single oral 1000 mg doses of abiraterone acetate, fed (high fat) vs fasted
Type: in vivo, human
Conditions: human, plasma, oral, 1000 mg, Patient 20; Fed
Observation type: Tmax (h)
Numeric only. Scale: h

(Q) // returns reported Tmax for input C[C@]12CC[C@H](O)CC1=CC[C@@H]1[C@@H]2CC[C@]2(C)C(c3cccnc3)=CC[C@@H]12 [Abiraterone]
(A) 8.03

----------
Assay: Food effect PK study, two single oral 1000 mg doses of abiraterone acetate, fed (high fat) vs fasted
Format: in vivo, human
Settings: human, plasma, oral, 1000 mg, Patient 21; Fed
Observation type: AUC(0-t) (µM·h)
Numeric only. Scale: µM·h

(Q) // returns reported AUC(0-t) for input C[C@]12CC[C@H](O)CC1=CC[C@@H]1[C@@H]2CC[C@]2(C)C(c3cccnc3)=CC[C@@H]12 [Abiraterone]
(A) 7.45

----------
Experiment: Food effect PK study, two single oral 1000 mg doses of abiraterone acetate, fed (high fat) vs fasted
Format: in vivo, human
Conditions: human, plasma, oral, 1000 mg, Patient 13; Fasted
Observation type: AUC(0-t) (µM·h)
Numeric only. Scale: µM·h

(Q) // returns reported AUC(0-t) for input C[C@]12CC[C@H](O)CC1=CC[C@@H]1[C@@H]2CC[C@]2(C)C(c3cccnc3)=CC[C@@H]12
(A) 3.7
